- System: ragweed (common ragweed, Ambrosia artemisiifolia)
- experimental_protocol: Test A postemergence, ragweed
- Assay type: in vivo
- assay_setup: Postemergence, 125 g ai/ha; visual injury approx. 10 days; 0 to 100 scale (0 no effect, 100 complete control)
Give measured Plant response rating, Ragweed for each item. Keep answers brief.
Answers are plain numbers.

>>> readout_number("Cc1cc(C)c(N(S(=O)(=O)C(F)(F)F)S(=O)(=O)C(F)(F)F)cc1-c1ccnn(C)c1=O [Compound 76]")
60

Provide the reported Plant response rating, Ragweed of each entry below, same order.
1. Cc1cc(C)c(N(S(=O)(=O)C(F)(F)F)S(=O)(=O)C(F)(F)F)cc1-c1cc(Cl)nn(C)c1=O [Compound 74]
2. COCC1(COC)CC(c2cc(NS(=O)(=O)C(F)(F)F)c(C)cc2C)=NO1 [Compound 104]

0
70

Provide the reported Plant response rating, Ragweed of each entry below, same order.
1. CCn1nccc(-c2cc(NS(=O)(=O)C(F)(F)F)c(C)cc2F)c1=O [Compound 55]
2. COC1CCN(C(=O)c2cc(NS(=O)(=O)C(F)(F)F)c(C)cc2C)C1 (centres unmarked) [Compound 113]
3. COC(=O)N(c1cc(-c2ccnn(C)c2=O)c(C)cc1C)S(=O)(=O)C(F)(F)F [Compound 53]

20
90
20

Provide the reported Plant response rating, Ragweed of each entry below, same order.
1. Cc1cc(Cl)c(NS(=O)(=O)C(F)(F)F)cc1C(=O)N1CCC(C#N)CC1 [Compound 17]
2. COc1cc(-c2cc(NS(=O)(=O)C(F)(F)F)c(C)cc2C)c(=O)n(C)n1 [Compound 70]

1. 80
2. 0

Provide the reported Plant response rating, Ragweed of each entry below, same order.
1. CC(=O)N(c1cc(-c2ccnn(C)c2=O)c(C)cc1C)S(=O)(=O)C(F)(F)F [Compound 56]
2. Cc1cc(Cl)c(N(S(=O)(=O)C(F)(F)F)S(=O)(=O)C(F)(F)F)cc1-c1cn(C)c(=O)n(C)c1=O [Compound 38]
3. Cc1cc(C)c(N(S(=O)(=O)C(F)(F)F)S(=O)(=O)C(F)(F)F)cc1C1=NOC2CCCC12 (centres unmarked) [Compound 99]

60
80
40

Provide the reported Plant response rating, Ragweed of each entry below, same order.
1. Cc1ccc(-c2ccnn(C)c2=O)cc1NS(=O)(=O)C(F)(F)F [Compound 59]
2. CCn1nccc(-c2cc(NS(=O)(=O)C(F)(F)F)c(C)cc2C)c1=O [Compound 79]
3. Cc1cc(C)c(N(S(=O)(=O)C(F)(F)F)S(=O)(=O)C(F)(F)F)cc1-c1cc(C(F)(F)F)nn(C)c1=O [Compound 61]
4. CCn1c(=O)c(-c2cc(NS(=O)(=O)C(F)(F)F)c(C)cc2C)cn(C)c1=O [Compound 37]

[20, 30, 0, 30]

Provide the reported Plant response rating, Ragweed of each entry below, same order.
1. COC1CCCN(C(=O)c2cc(N(C(=O)C(C)C)S(=O)(=O)C(F)(F)F)c(C)cc2C)C1 (centres unmarked) [Compound 91]
2. CCc1cc(-c2cc(N(S(=O)(=O)C(F)(F)F)S(=O)(=O)C(F)(F)F)c(C)cc2C)c(=O)n(C)n1 [Compound 28]
3. Cc1ccc(-c2ccnn(C)c2=O)cc1N(S(=O)(=O)C(F)(F)F)S(=O)(=O)C(F)(F)F [Compound 66]
4. CCn1cc(-c2cc(NS(=O)(=O)C(F)(F)F)c(C)cc2C)c(=O)n(C)c1=O [Compound 32]
5. Cc1cc(C)c(C(=O)N2COC(C)(C)C2)cc1NS(=O)(=O)C(F)(F)F [Compound 112]

1: 40; 2: 20; 3: 0; 4: 30; 5: 90
